# maps each entry to its EC50
tested on: MT4; experiment: Effective concentration to achieve 50% protection of MT-4 cells against the cytopathic effect of HIV-2; format: functional, cell-based; settings: Homo sapiens, MT4; read-out: EC50
Numeric only. Scale: µg/mL

CCCCOC(=O)/C=C(\COC(=O)CCC)OC1OC(COS(=O)(=O)[O-])C(OC2OC(C(=O)OCCCC)C(OC3OC(COS(=O)(=O)[O-])C(OC4OC(C(=O)OCCCC)C(OC5OC(COS(=O)(=O)[O-])C(O)C(OC(=O)CCC)C5NS(=O)(=O)[O-])C(OC(=O)CCC)C4OS(=O)(=O)[O-])C(OC(=O)CCC)C3NS(=O)(=O)[O-])C(OC(=O)CCC)C2OS(=O)(=O)[O-])C(OC(=O)CCC)C1NS(=O)(=O)[O-].[Na+].[Na+].[Na+].[Na+].[Na+].[Na+].[Na+].[Na+] (configuration not stated); 0.27

Now turn to the next compound.
*Q* // returns reported EC50 for input CCCC(=O)OCC1OC(OC2C(C(=O)[O-])OC(OC3C(NC(C)=O)C(OC4C(C(=O)[O-])OC(C)C(OC(=O)CCC)C4O)OC(COC(=O)CCC)C3OS(=O)(=O)[O-])C(OC(=O)CCC)C2OC(=O)CCC)C(NC(C)=O)C(OC)C1OS(=O)(=O)[O-].[Na+].[Na+].[Na+].[Na+] (configuration not stated)
*A* 18
